# Tested on: human ether-à-go-go-related gene (hERG) potassium channel (human);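 also: peak tail current of the secondary pulse compared with the same well before compound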
# Sequence (Q12809 whole entry, looked up): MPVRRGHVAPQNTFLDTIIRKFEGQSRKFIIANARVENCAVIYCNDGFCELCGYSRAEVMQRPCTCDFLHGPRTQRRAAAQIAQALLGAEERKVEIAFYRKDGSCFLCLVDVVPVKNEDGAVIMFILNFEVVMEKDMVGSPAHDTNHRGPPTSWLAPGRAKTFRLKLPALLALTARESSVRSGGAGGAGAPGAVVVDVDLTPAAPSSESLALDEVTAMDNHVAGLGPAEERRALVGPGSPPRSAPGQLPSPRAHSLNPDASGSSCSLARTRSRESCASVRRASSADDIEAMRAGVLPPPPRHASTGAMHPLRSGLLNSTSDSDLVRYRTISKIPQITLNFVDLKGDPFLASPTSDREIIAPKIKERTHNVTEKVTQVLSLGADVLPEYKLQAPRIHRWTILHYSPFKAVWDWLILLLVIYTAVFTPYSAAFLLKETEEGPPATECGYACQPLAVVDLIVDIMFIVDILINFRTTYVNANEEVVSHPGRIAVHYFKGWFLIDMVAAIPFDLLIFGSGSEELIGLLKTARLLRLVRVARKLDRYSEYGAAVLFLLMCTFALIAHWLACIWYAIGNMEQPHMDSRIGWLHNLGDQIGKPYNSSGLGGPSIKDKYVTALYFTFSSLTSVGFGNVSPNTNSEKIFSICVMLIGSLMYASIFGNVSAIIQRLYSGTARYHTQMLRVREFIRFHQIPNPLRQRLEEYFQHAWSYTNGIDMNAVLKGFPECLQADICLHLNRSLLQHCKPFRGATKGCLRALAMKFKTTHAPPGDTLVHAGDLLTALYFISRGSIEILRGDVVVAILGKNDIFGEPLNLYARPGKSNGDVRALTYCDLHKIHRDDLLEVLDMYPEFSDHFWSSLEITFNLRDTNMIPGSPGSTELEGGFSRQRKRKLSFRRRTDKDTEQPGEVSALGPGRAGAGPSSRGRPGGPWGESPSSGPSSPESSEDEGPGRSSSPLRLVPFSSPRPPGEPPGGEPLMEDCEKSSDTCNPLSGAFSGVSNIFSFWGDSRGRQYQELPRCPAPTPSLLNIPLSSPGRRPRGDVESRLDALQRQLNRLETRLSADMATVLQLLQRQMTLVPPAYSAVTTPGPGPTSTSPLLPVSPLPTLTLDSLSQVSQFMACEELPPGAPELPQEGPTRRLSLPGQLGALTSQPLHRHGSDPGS
# Protocol: primary screen, population patch clamp on CHO cells stably expressing hERG; higher = less effect of the substance
The campaign covered roughly 310,000 compounds. About 14,000 (4.5%) showed an effect of 50% or more. The effect is printed as a negative number. The full list was thinned out, with strong results kept by preference.
hERG current change (%, negative = inhibition) at 10uM vs -20%: at or above is satisfied, below is not satisfied.

Compound	Group label
CCOc1ccc(C(CCc2ccccc2)NC(=O)c2ccccc2)cc1OCC (stereo not drawn)	satisfied
Nn1c(SCC(=O)NC(=O)Nc2ccc3c(c2)OCCO3)nnc1C1CC1	satisfied
O=C(N/C(=C\c1ccc(Cl)cc1)C(=O)N1CCOCC1)c1ccc([N+](=O)[O-])cc1	not satisfied
CCOCCCNC(=O)COc1ccc(OC)cc1	satisfied
COC(=O)c1ccc(/C=C(/NC(=O)c2ccccc2)C(=O)N2CCOCC2)cc1	satisfied
CN(C(=O)COC(=O)c1ccc(Cl)c(S(=O)(=O)N2CCCCC2)c1)C1(C#N)CCCCC1	not satisfied
O=C(N/C(=C/c1cccc([N+](=O)[O-])c1)C(=O)N1CCOCC1)c1ccc(Br)cc1	not satisfied
C[C@@]12C(=O)N(c3ccc(C(F)(F)F)cc3)C(=O)N1[C@@H]1c3ccccc3OC[C@@H]1[C@H]2c1ccccc1	satisfied
COC(=O)c1ccccc1NC(=S)NC(NC(=O)COc1ccccc1)C(Cl)(Cl)Cl (stereo not drawn)	satisfied
